Entries and their measured Ki follow.
MEASURED TARGET: LRRK2 (Homo sapiens (Human), UniProt Q5S007, G2019S)
Sequence (Q5S007 970-2527 G2019S limits assumed): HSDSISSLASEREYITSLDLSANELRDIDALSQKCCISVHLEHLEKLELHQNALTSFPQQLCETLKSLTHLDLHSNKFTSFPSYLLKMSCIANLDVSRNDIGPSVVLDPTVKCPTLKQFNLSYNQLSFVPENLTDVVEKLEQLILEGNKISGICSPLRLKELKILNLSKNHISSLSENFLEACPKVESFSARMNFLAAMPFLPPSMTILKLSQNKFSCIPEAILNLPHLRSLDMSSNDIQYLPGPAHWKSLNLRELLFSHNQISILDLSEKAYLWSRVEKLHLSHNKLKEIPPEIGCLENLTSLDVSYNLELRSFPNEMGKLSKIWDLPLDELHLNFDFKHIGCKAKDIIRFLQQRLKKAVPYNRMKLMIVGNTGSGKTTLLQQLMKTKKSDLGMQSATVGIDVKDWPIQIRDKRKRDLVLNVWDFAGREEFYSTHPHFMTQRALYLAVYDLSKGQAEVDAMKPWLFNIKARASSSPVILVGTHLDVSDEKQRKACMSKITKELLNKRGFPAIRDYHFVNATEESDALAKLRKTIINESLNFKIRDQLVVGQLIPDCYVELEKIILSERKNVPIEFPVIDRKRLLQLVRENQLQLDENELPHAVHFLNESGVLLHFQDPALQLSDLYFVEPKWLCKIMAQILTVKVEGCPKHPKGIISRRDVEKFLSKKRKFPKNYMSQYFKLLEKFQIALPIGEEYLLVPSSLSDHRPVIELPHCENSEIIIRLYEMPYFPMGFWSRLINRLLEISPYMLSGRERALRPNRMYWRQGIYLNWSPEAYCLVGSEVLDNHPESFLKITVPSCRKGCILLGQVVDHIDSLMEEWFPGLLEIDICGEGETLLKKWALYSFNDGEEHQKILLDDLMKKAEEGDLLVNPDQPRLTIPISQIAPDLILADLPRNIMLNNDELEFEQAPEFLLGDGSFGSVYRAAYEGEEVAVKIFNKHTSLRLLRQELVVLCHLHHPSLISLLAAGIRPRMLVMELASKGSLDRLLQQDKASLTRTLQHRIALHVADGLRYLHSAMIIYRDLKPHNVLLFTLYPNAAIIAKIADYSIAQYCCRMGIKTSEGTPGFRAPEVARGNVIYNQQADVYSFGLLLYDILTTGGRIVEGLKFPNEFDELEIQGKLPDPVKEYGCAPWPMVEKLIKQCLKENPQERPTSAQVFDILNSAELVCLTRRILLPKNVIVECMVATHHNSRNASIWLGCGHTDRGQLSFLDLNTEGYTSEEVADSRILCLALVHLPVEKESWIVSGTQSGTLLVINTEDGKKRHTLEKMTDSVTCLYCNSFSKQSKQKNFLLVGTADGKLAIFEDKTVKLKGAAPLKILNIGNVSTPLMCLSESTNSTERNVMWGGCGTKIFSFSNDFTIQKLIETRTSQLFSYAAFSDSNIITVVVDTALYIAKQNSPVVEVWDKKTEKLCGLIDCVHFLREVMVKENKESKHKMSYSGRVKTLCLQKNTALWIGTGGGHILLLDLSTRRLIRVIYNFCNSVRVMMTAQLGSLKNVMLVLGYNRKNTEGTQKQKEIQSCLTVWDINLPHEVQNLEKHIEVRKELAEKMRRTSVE
ASSAY OVERVIEW: In Vitro LRRK2 LabChip Assay
Format: biochemical
COND: Table 6
# value in nM; strip the unit string

CNc1nc(Nc2ccc(C(=O)N3CCOCC3)c(F)c2OC)ncc1C(F)(F)F [Example 297]	14.5
CNc1nc(Nc2ccc(C(=O)N3CCOCC3)cc2OCC2CCC2)ncc1C(F)(F)F [Example 286]	5.2

Give the measured Ki for CCNc1nc(Nc2ccc(C(=O)N3CCOCC3)cc2OC(C)C)ncc1C(F)(F)F [Example 310]
4.5

Give the measured Ki for CNc1nc(Nc2cc(Cl)c(C(=O)N3CCOCC3)cc2OC)ncc1C(F)(F)F [Example 292]
2

Give the measured Ki for CNc1nc(Nc2ccc(C(=O)N3CC4CCC(C3)O4)cc2OC)ncc1C(F)(F)F [Example 272]
1.7

Give the measured Ki for CCNc1nc(Nc2cc(F)c(C(=O)N3CCC[C@H]3COC)cc2OC)ncc1C(F)(F)F [Example 306]
0.6

Give the measured Ki for CCN(CC)C(=O)c1ccc(Nc2ncc(C(F)(F)F)c(NC)n2)c(OC)c1 [Example 275]
3.3

Give the measured Ki for CNc1nc(Nc2ccc(C(=O)NC3COC3)cc2OC)ncc1C(F)(F)F [Example 271]
3.7
